assay-protocol: physchem
test-context: 66% dimethylformamide-water, pH 5, pK'a1
Counter-ions that a name gives are not always drawn.

compound: COC1(NC(=O)CCCC(N)C(=O)O)C(=O)N2C(C(=O)O)=C(COC(N)=O)CSC21 (stereo not shown) [A16886I hydrochloride]
pKa: 3.6

====

assay-protocol: physchem
test-context: 66% dimethylformamide-water, pH 6.5, pK'a3
property-label: pKa

compound: COC1(NC(=O)CCCC(N)C(=O)O)C(=O)N2C(C(=O)O)=C(COC(N)=O)CS[C@@H]21 (stereo partly shown) [A16886I]
property-label: pKa
result: 9.3

====

assay-protocol: physchem
test-context: 66% dimethylformamide-water, pH 7.7, pK'a3

compound: NC(=O)OCC1=C(C(=O)O)N2C(=O)C(NC(=O)CCCC(N)C(=O)O)[C@H]2SC1 (stereo partly shown) [A16886II]
pKa: 9.6

Provenance of the data: patent US4123612A
